The following compounds are shown together with reported GC peak Area, %, After 2 hours at pH 2.5 values.
- assay_text: Acid induced degradation at pH 2.5, gas chromatography
- Format: physicochemical
- assay_conditions: DHA preparation without lycopene
The answer is to be given in %; state only the numeric part.

• CCCCC/C=C\C/C=C\C/C=C\CCCCC(=O)O = 0.28
• CCCCCCCCCCCCCCCCCC(=O)O = 0.68
• CCCCC/C=C\C/C=C\CCCCCCCC(=O)O = 1.25

Q: What measured GC peak Area, %, After 2 hours at pH 2.5 goes with CCC=CCC=CCC=CCC=CC/C=C\CCCC(=O)O [cis-5,8,11,14,17-eicosapentaenoic] ?
Result: 0.99

Q: What measured GC peak Area, %, After 2 hours at pH 2.5 goes with CCCCC/C=C\C/C=C\C/C=C\C/C=C\CCCC(=O)O ?
Result: 0.79

====

- assay_text: Size of lipid droplets of dairy butter, microscopy
- Type: physicochemical
- assay_conditions: astaxanthin dose 0.1 per 30 g of butter
measurement_name: Size of butter lipid droplets, Mean (µm)
The answer is to be given in µm; state only the numeric part.

Q: What measured Size of butter lipid droplets, Mean goes with CC1=C(/C=C/C(C)=C/C=C/C(C)=C/C=C/C=C(C)/C=C/C=C(C)/C=C/C2=C(C)C(=O)[C@@H](O)CC2(C)C)C(C)(C)C[C@H](O)C1=O [Astaxanthin, astaxanthin] ?
Result: 7.44

====

- assay_text: Acid induced degradation at pH 2.5, gas chromatography
- Assay type: physicochemical
- assay_conditions: DHA preparation without lycopene
The following molecules are shown together with reported GC peak Area, %, Baseline values.
The answer is to be given in %; state only the numeric part.

Example entries and their recorded answers appear below.
* CCCCC/C=C\C/C=C\C/C=C\CCCCC(=O)O | 0.28
* CCCCCCCCCCCCCCCCCCCCCCCC(=O)O | 0.14
* CCCCCCCCCCCCCCCCCC(=O)O | 0.66
* CCCCCC(=O)O | 1.31

Q: What measured GC peak Area, %, Baseline goes with CCCCC/C=C\C/C=C\C/C=C\C/C=C\CCCC(=O)O ?
Result: 0.83

Q: What measured GC peak Area, %, Baseline goes with CCCCCCCCCCCCCC(=O)O ?
Result: 6.23

====

- assay_text: Acid induced degradation at pH 2.5, gas chromatography
- Assay type: physicochemical
- assay_conditions: DHA preparation without lycopene
The following compounds are shown together with reported GC peak Area, Baseline values.

Example entries and their recorded answers appear below.
* CCCC/C=C\CCCCCCCC(=O)O [Myristoleic] | 1,934
* CCCCCC/C=C\CCCCCCCC(=O)O [Palmitoleic] | 1,219
* CCCCCCCCCCCCCCCC(=O)O [Palmitic] | 197,526

Q: What measured GC peak Area, Baseline goes with CCCCCCCC/C=C/CCCCCCCC(=O)O [Elaidic] ?
Result: 2,108

Q: What measured GC peak Area, Baseline goes with CCCCCCCCCCCCCCC(=O)O [Pentadecanoic] ?
Result: 3,120

====

- assay_text: Size of lipid droplets of dairy butter, microscopy
- Assay type: physicochemical
- assay_conditions: astaxanthin dose 3.5 per 30 g of butter
measurement_name: Size of butter lipid droplets, Mean (µm)
The answer is to be given in µm; state only the numeric part.

Q: What measured Size of butter lipid droplets, Mean goes with CC1=C(/C=C/C(C)=C/C=C/C(C)=C/C=C/C=C(C)/C=C/C=C(C)/C=C/C2=C(C)C(=O)[C@@H](O)CC2(C)C)C(C)(C)C[C@H](O)C1=O [Astaxanthin, astaxanthin] ?
Result: 12.2
